Test system: enterovirus D68
test_description: Antiviral activity against enterovirus D68 US/MO/14-18947 infected in human RD cells assessed as reduction in virus induced cytopathic effect by neutral red staining based CPE assay
Type: functional, organism-based
details: Enterovirus D, US/MO/14-18947, RD
result_type: log10 of EC50 (log10 of the value in nM)
Friendly reminder: values = log10 of EC50, unit nM.

Please review the following examples before continuing.
CC(C)(C)[C@H](NC(=O)CC12CC3CC(CC(C3)C1)C2)C(=O)N1C[C@@H]2CCC[C@@H]2[C@H]1C(=O)N[C@H](C(=O)C(=O)NC1CC1)c1ccccc1: 2.76
CCC[C@H](NC(=O)[C@@H]1[C@H]2CCC[C@H]2CN1C(=O)[C@@H](NC(=O)CC1C2CC3CC(C2)CC1C3)C(C)(C)C)C(=O)C(=O)NC1CC1 (stereo not given in full): 2.26
CCC[C@H](NC(=O)[C@@H]1[C@H]2CCC[C@H]2CN1C(=O)[C@@H](NC(=O)[C@@H](NC(=O)c1cnccn1)C1CCCCC1)C(C)(C)C)C(=O)C(=O)NC1CC1: 2.65
CCC[C@H](NC(=O)[C@@H]1[C@H]2CCC[C@H]2CN1C(=O)[C@@H](NC(=O)CC12CC3CC(CC(O)(C3)C1)C2)C(C)(C)C)C(=O)C(=O)NC1CC1: 3.27

// next item, log10 of EC50 requested
Reported log10 of EC50 ( CC(C)(C)[C@H](NC(=O)CC12CC3CC(CC(C3)C1)C2)C(=O)N1C[C@@H]2CCC[C@@H]2[C@H]1C(=O)N[C@@H](Cc1ccc(F)cc1)C(=O)C(=O)NC1CC1 ) = 2.28
